Hello, the source for this data is patent US7531545B2, in case you need it.

- Target under test: β-secretase (BACE) (Homo sapiens, UniProt P56817)
- Construct: purchased Panvera
- Sequence (P56817 46-501): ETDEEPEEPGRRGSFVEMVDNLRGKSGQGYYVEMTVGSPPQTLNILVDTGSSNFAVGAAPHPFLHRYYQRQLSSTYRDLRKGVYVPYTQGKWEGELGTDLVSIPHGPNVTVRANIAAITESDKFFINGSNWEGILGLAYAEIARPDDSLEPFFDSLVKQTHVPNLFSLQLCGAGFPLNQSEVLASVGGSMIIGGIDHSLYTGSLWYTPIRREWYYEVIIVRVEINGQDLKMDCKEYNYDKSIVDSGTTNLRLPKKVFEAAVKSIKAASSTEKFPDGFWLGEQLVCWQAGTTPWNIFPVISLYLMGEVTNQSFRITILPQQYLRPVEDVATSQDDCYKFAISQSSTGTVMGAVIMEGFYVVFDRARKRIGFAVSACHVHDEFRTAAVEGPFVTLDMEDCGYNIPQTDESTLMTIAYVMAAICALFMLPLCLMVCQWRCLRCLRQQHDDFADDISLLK
- Protocol details: BACE FS1 Assay (% Inhibition and Ki)
- Assay type: biochemical
- Run conditions: 0.3 μM test compound; FS1 substrate; read-out: % Inhibition (FS) @ 0.3 μM
Reported endpoint: inhibition at 0.3 µM (%)

>>> value_measured("COC(=O)[C@H]1CC[C@H](N(C)C(=O)CC[C@@H](C2CCOCC2)N2Cc3cc(Oc4ccccc4)ncc3N=C2N)CC1 [Compound 34]")
96

A: CN(C(=O)CCC(C1CCOCC1)N1Cc2cc(Oc3ccccc3)ncc2N=C1N)C1CCC(C(=O)O)CC1 (stereo not shown) [Compound 26]
B: CN(CCCCC(=O)O)C(=O)CC[C@@H](C1CCCCC1)N1Cc2cc(Oc3ccccc3)ncc2N=C1N [Compound 44]
Could you kindly indicate whether A or B has the higher inhibition at 0.3 µM value? To answer, give the label that identifies your chosen option. A
(A: 110%, B: 61%)

---

- Target under test: human BACE-1 (Homo sapiens)
- Protocol details: CEREP BACE Inhibition Assay
- Type: biochemical
- Run conditions: 1.0 μM; percent inhibition of the control activity; recombinant enzyme; read-out: % Inhibition @ 1.0 μM
Reported endpoint: inhibition at 1 µM (%)

>>> value_measured("CC(C)[C@H](COCC1CC(C(C)(C)C)=NO1)N1Cc2cc(Oc3ccccc3)ncc2N=C1N (stereo partly drawn)")
92
>>> value_measured("CC(C)(C)OC[C@@H](NC(=O)CC[C@@H](C1CCCCC1)N1Cc2cc(Oc3ccccc3)ncc2N=C1N)C(=O)N[C@@H](CCC(=O)O)C(=O)O")
100
>>> value_measured("CC(C)[C@H](COCC1CCCCC1)N1Cc2cc(Oc3ccccc3)ncc2N=C1N")
94
>>> value_measured("CC(C)(C)CCN(Cc1ccncc1)C(=O)CC[C@@H](C1CCCCC1)N1Cc2cc(Oc3ccccc3)ncc2N=C1N")
101
>>> value_measured("CC(C)C(COCC1CC(CC(C)(C)C)=NO1)N1Cc2cc(Oc3ccccc3)ncc2N=C1N (stereo not drawn)")
72

I: C[C@@H](OCc1ccccc1)[C@H](CCC(=O)N(CCC(C)(C)C)Cc1ccncc1)N1Cc2cc(Oc3ccccc3)ncc2N=C1N
II: CN(C(=O)CCC(C1CCCCC1)N1Cc2cc(Oc3ccccc3)ncc2N=C1N)C1CCS(=O)(=O)C1 (stereo not drawn)
III: COCC(=O)NC1=Nc2cnc(Oc3ccccc3)cc2CN1C(Cn1cc(C(C)(C)C)nn1)C1CCCCC1 (stereo in doubt)
rank_up(items): orders items by reported inhibition at 1 µM in ascending numerical order. Provide the ranking by listing each label in its place in the requested order. III, II, I

---

- Target under test: human BACE-1 (Homo sapiens, UniProt P56817)
- Sequence (P56817 46-501): as above
- Protocol details: CEREP BACE Inhibition Assay
- Type: biochemical
- Run conditions: 0.3 μM; percent inhibition of the control activity; recombinant enzyme
- Protocol: More specifically the assay, run at 50 μL in a 96 well plate, evaluated the effect of test compound on the activity of the human BACE-1 quantified by measuring the formation of Mca-S-E-V-N-L-NH2 from […], using a recombinant enzyme. […] The standard inhibitory reference compound was OM99-2, which was tested in each experiment at several concentrations to obtain an inhibition curve from which its IC50 value was calculated.
Reported endpoint: inhibition at 0.3 µM (%)

Solved cases below.
>>> value_measured("CC(C)[C@H](CCC(=O)N[C@H](COC(C)(C)C)C(=O)O)N1Cc2cc(Oc3ccccc3)ncc2N=C1N [Compound 88]")
98
>>> value_measured("CC(C)[C@H](CCC(=O)N[C@H](COC(C)(C)C)C(=O)N1CCCCC1)N1Cc2cc(Oc3ccccc3)ncc2N=C1N [Compound 98]")
72
>>> value_measured("COC(=O)[C@H](COCc1ccccc1)N(C)C(=O)CC[C@@H](C1CCOCC1)N1Cc2cc(Oc3ccccc3)ncc2N=C1N [Compound 56]")
93
>>> value_measured("CC(C)(C)OC[C@@H](NC(=O)CC[C@@H](C1CCCCC1)N1Cc2cc(Oc3ccccc3)ncc2N=C1N)C(=O)N1CCCCC1 [Compound 100]")
93

A: NC1=Nc2cnc(Oc3ccccc3)cc2CN1[C@@H](CCC(=O)N1CCCC[C@H]1C(=O)O)C1CCCCC1 [Compound 91]
B: CC(C)[C@H](CCC(=O)N[C@@H](COC(C)(C)C)CN1CCCCC1)N1Cc2cc(Oc3ccccc3)ncc2N=C1N [Compound 101]
Could you kindly indicate whether A or B has the higher inhibition at 0.3 µM value? To answer, give the label that identifies your chosen option. A
(A: 70%, B: 43%)

---

- Target under test: human BACE-1 (Homo sapiens)
- Protocol details: CEREP BACE Inhibition Assay
- Assay type: biochemical
- Run conditions: recombinant enzyme; read-out: IC50
Reported endpoint: IC50 (nM)

Solved cases below.
>>> value_measured("C[C@@H](OCc1ccccc1)[C@H](CCC(=O)N(CCC(C)(C)C)Cc1ccncc1)N1Cc2cc(Oc3ccccc3)ncc2N=C1N [Compound 185]")
270
>>> value_measured("NC1=Nc2cnc(Oc3ccccc3)cc2CN1[C@@H](CN1CC2(CCCCC2)NC1=O)C1CCCCC1 [Compound 135]")
200
>>> value_measured("CC(C)[C@H](CCC(=O)N[C@H](COC(C)(C)C)C(=O)O)N1Cc2cc(Oc3ccccc3)ncc2N=C1N [Compound 88]")
100
>>> value_measured("CC(C)[C@H](CCC(=O)N[C@@H](COC(C)(C)C)c1nnnn1Cc1ccccc1)N1Cc2cc(Oc3ccccc3)ncc2N=C1N [Compound 95]")
210
>>> value_measured("CC(C)[C@H](CCC(=O)N[C@H](C)CO)N1Cc2cc(Oc3ccccc3)ncc2N=C1N [Compound 175]")
97

P: CC(C)(C)c1cn(CC[C@@H](C2CCCCC2)N2Cc3cc(Oc4ccccc4)ncc3N=C2N)nn1 [Compound 199]
Q: CN(CCO)C(=O)CC[C@@H](C1CCCCC1)N1Cc2cc(Oc3ccccc3)ncc2N=C1N [Compound 171]
R: CC(C)CNC(=O)CC[C@@H](C1CCCCC1)N1Cc2cc(Oc3ccccc3)ncc2N=C1N [Compound 208]
rank_up(items): orders items by reported IC50 in ascending numerical order. Provide the ranking by listing each label in its place in the requested order. P, R, Q
(P: 86 nM, R: 130 nM, Q: 270 nM)

---

- Target under test: human BACE-1 (Homo sapiens, UniProt P56817)
- Protocol details: CEREP BACE Inhibition Assay
- Assay type: biochemical
- Run conditions: recombinant enzyme; read-out: IC50
Reported endpoint: IC50 (nM)

>>> value_measured("CC(C)[C@H](COCCC1CCCCC1)N1Cc2cc(Oc3ccccc3)ncc2N=C1N [Compound 232]")
110

I: NC1=Nc2cnc(Oc3ccccc3)cc2CN1[C@@H](CCC(=O)N1CCC[C@@H]1CO)C1CCCCC1 [Compound 144]
II: CC(C)(C)CCN(CCN1CCOCC1)C(=O)CC[C@@H](C1CCCCC1)N1Cc2cc(Oc3ccccc3)ncc2N=C1N [Compound 174]
Could you kindly indicate whether I or II has the higher IC50 value? To answer, give the label that identifies your chosen option. I
(I: 820 nM, II: 86 nM)

P: CCOCCCNC(=O)CC[C@@H](C1CCCCC1)N1Cc2cc(Oc3ccccc3)ncc2N=C1N [Compound 173]
Q: CC(C)(C)CNC(=O)CC[C@@H](CC1CCOCC1)N1Cc2cc(Oc3ccccc3)ncc2N=C1N [Compound 219]
R: NC1=Nc2cnc(Oc3ccccc3)cc2CN1[C@@H](CCC(=O)NCC1CC1)C1CCCCC1 [Compound 212]
S: CC(C)(C)CNCCC[C@@H](C1CCCCC1)N1Cc2cc(Oc3ccccc3)ncc2N=C1N [Compound 161]
rank_up(items): orders items by reported IC50 in ascending numerical order. Provide the ranking by listing each label in its place in the requested order. R, P, S, Q
(R: 76 nM, P: 130 nM, S: 200 nM, Q: 640 nM)

P: NC1=Nc2cnc(Oc3ccccc3)cc2CN1[C@@H](CCC(=O)N(Cc1nnc[nH]1)C1CCCCC1)C1CCCCC1 [Compound 80]
Q: CC(C)(C)OCCN(Cc1ccsc1)C(=O)CC[C@@H](C1CCCCC1)N1Cc2cc(Oc3ccccc3)ncc2N=C1N [Compound 156]
R: CC(C)=CCOC[C@@H](C(C)C)N1Cc2cc(Oc3ccccc3)ncc2N=C1N [Compound 233]
S: CC(C)(C)OC[C@H](NC(=O)CC[C@@H](C1CCCCC1)N1Cc2cc(Oc3ccccc3)ncc2N=C1N)C(=O)O [Compound 62]
Order field: IC50 | Direction: descending (largest first) Provide the ranking by listing each label in its place in the requested order. R, S, P, Q
(R: 880 nM, S: 250 nM, P: 170 nM, Q: 100 nM)

a: CC(C)(C)OCCN(Cc1ccc(F)cc1)C(=O)CC[C@@H](C1CCCCC1)N1Cc2cc(Oc3ccccc3)ncc2N=C1N [Compound 158]
b: NC1=Nc2cnc(Oc3ccccc3)cc2CN1[C@@H](CCC(=O)N(Cc1ncc[nH]1)C1CCCCC1)C1CCCCC1 [Compound 78]
Please indicate which has the smaller reported IC50: a , or b . To answer, give the label that identifies your chosen option. a
(a: 130 nM, b: 190 nM)
